Cited source: ChEMBL document CHEMBL5226323

assayComment: Half life in ip dosed mouse
Format: ADME, organism-based
conditionsUsed: in vivo
metric: half-life
Value and unit, in that order.

Measured half-life of `Cc1ccc(Cl)c(Nc2ccccc2C(=O)O)c1Cl` : 90 min

====

targetOfAssay: Retinoic acid receptor RXR-alpha (Homo sapiens, UniProt P19793)
Sequence (P19793 whole entry): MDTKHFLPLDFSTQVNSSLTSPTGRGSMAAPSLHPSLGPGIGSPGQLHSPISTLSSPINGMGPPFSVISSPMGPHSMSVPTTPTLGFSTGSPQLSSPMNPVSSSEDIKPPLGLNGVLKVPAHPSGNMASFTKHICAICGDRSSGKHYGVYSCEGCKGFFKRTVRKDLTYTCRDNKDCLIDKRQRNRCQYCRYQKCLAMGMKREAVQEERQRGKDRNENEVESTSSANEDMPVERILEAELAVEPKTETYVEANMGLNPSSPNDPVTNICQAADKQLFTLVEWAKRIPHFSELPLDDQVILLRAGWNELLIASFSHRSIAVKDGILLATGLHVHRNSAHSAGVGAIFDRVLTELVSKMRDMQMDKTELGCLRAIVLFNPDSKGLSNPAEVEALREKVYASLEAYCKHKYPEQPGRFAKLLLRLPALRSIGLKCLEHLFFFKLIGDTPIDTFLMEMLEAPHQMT
assayComment: Antagonist activity at RXRalpha (unknown origin)
metric: EC50 (nM)
The reply should be a number in nM, with the unit left off.

Form: compound = `CCCCCOc1cc2c(cc1-c1cc(CCC(=O)O)ccc1O)C(C)(C)CCC2(C)C` ; EC50 = 240

====

targetOfAssay: Nuclear receptor subfamily 4 group A member 2/Retinoic acid receptor RXR-alpha (Homo sapiens, UniProt P19793+P43354)
Sequence (P19793 whole entry): as above
Sequence (P43354 whole entry): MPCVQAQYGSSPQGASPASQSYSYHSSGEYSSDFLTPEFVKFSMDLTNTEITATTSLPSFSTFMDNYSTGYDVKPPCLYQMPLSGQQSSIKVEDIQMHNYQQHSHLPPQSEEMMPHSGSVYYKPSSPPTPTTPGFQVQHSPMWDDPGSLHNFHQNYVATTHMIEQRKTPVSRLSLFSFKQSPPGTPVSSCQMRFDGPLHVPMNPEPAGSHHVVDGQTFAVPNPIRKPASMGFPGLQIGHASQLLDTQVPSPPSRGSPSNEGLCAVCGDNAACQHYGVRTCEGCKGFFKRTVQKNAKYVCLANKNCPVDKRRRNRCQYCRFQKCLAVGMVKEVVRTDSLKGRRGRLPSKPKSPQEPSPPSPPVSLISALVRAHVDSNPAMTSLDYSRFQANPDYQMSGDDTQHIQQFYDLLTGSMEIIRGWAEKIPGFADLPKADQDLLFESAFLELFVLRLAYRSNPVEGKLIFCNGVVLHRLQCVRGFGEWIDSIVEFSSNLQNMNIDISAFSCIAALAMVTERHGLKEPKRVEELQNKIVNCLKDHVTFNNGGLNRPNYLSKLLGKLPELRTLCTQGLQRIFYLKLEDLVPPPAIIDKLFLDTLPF
assayComment: Inhibition of full-length Nurr1-RXRalpha in human SH-SY5Y cells
Assay type: cell-based
metric: EC50 (nM)
Express your answer in nM, writing the number without its unit.

Reported EC50 of Cc1ccc(Cl)c(Nc2ccccc2C(=O)O)c1Cl [MECLOFENAMIC ACID] : 900
